So I've got a bunch of binders here, and I need their koff values.
measurementTarget: T1, mANGPTL3(17-455)-His (Mus musculus, UniProt Q9R182 17-455)
T1 construct: Bought protein (R&D Systems); also called full-length mature ANGPTL3 from Mus musculus with a C-terminal decahistidine tag
T1 sequence: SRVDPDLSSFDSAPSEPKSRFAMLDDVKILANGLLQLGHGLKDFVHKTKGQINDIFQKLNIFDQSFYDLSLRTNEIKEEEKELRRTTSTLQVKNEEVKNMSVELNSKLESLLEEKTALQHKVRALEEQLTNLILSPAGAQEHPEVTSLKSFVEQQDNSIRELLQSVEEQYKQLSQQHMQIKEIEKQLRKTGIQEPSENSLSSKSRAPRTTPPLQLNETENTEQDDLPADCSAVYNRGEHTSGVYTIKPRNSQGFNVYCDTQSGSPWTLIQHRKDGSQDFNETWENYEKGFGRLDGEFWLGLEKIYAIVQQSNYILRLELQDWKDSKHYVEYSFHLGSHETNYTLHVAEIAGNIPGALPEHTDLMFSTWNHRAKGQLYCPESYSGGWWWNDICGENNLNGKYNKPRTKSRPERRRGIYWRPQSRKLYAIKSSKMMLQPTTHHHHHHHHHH
experimentDescription: SPR Biacore, antigen captured, 37C, pH 7.4, HBS-EP
Units required after the number.

# annotated cases, reported koff shown
# binder, koff
rows = [
    ("H4H1279P (antibody, IgG4, V domains shown) VH: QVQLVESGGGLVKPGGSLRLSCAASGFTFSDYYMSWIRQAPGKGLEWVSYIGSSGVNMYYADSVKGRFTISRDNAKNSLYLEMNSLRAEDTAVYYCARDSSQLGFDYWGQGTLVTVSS VL: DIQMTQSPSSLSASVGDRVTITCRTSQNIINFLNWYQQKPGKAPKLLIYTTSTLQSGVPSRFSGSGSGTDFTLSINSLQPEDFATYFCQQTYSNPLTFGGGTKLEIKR", "0.000359 s⁻¹"),
    ("H1M896N (antibody, V domains shown) VH: EVQLLESGGGLVQPGGSLRLSCAASGFTFSTYAMSWVRQAPGKGLEGVSGISGTGYRTYYADSVKGRFTISRDNSKNSLYLQMNSLRAEDTAVYYCAKDRGLLWFGELTYWGQGTLVTVSS VL: DIQMTQSPSTLSASVGDRVTITCRASQSINNWLAWYQQKPGKAPNLLIYKASSLESGVPSRFSGSGSGTEFTLTISSLQPDDFATYYCQQYNDYWTFGQGTKVEIK", "0.00247 s⁻¹"),
]

API: the following record is the query input.
response.value for H4H1250P (antibody, IgG4, V domains shown) VH: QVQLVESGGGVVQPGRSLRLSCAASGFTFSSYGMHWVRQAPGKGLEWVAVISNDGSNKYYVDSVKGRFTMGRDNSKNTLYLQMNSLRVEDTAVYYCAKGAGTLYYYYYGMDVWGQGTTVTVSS VL: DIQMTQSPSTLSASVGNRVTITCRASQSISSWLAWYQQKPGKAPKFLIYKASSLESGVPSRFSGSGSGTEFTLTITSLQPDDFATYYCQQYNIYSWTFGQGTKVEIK (field: koff) = 0.00155 s⁻¹
